A collection of compounds and their measured pEC50
- measured_target: Epidermal growth factor receptor (Homo sapiens, UniProt P00533)
- Sequence (P00533 whole entry): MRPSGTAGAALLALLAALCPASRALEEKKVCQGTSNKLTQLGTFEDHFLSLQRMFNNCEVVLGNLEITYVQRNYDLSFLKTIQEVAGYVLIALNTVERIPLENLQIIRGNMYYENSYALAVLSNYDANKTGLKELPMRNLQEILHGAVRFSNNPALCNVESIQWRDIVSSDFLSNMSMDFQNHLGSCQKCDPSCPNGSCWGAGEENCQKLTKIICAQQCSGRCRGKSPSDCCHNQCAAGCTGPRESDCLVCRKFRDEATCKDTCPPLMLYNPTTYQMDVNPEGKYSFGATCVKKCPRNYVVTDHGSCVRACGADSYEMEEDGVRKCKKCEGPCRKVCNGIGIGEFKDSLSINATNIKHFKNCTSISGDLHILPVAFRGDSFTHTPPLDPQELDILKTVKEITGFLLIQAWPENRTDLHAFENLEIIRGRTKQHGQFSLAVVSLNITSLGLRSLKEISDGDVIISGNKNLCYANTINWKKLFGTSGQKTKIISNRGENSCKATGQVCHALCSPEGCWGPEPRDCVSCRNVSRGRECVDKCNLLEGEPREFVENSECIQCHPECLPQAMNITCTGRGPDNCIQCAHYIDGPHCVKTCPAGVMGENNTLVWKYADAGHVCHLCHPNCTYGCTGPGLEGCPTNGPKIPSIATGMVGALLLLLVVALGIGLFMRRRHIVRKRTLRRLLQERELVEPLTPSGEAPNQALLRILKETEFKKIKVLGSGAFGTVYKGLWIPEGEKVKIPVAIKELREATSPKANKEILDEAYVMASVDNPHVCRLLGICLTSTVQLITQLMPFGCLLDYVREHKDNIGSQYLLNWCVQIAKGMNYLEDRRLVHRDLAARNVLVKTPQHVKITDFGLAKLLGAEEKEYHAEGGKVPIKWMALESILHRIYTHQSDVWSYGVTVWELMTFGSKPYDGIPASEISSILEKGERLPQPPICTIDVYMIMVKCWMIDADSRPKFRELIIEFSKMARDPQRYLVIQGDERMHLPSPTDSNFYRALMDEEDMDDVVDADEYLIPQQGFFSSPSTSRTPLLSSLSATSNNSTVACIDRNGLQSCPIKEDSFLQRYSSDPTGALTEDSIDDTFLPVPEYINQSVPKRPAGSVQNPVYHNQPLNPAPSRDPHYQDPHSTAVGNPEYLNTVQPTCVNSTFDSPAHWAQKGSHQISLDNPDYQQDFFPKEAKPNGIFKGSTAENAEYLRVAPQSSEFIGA
- assay_overview: Inhibition of wild-type EGFR autophosphorylation in human LoVo cells incubated for 2 hrs followed by EGF-stiumlation for 10 mins by ELISA
pEC50 (log units): -log10 of the concentration in mol/L.

C=CC(=O)Nc1ccccc1Cn1c(-c2nc(-c3cnn(C4CCN(C)CC4)c3)cnc2N)nc2ccccc21: 6.38
C=CC(=O)Nc1cccc(-n2c(-c3nc(-c4cnn(CCN5CCN(C)CC5)c4)cnc3N)nc3ccccc32)c1: 5.64
C=CC(=O)Nc1cccc(-n2c(-c3nc(-c4cnn(C5CCN(C(C)C)CC5)c4)cnc3N)nc3ccccc32)c1: 6.12
C=CC(=O)Nc1cccc(-n2c(-c3nc(-c4cnn(CCN5CCOCC5)c4)cnc3N)nc3ccccc32)c1: 5.30

Ask | Name the value of pEC50 reported for `C=CC(=O)Nc1cccc(-n2c(-c3nc(-c4cnn(C5CCN(C(=O)CO)CC5)c4)cnc3N)nc3ccccc32)c1` when tested on Epidermal growth factor receptor (Homo sapiens, UniProt P00533).
Reply | 5.52

Ask | Name the value of pEC50 reported for `C=CC(=O)Nc1cccc(-n2c(-c3nc(-c4cnn(C5CCN(C(C)=O)CC5)c4)cnc3N)nc3ccccc32)c1` when tested on Epidermal growth factor receptor (Homo sapiens, UniProt P00533).
Reply | 5.45

---

- measured_target: Epidermal growth factor receptor (Homo sapiens, UniProt P00533, L858R/T790M)
- Sequence (P00533 25-1210 T790M/L858R limits assumed): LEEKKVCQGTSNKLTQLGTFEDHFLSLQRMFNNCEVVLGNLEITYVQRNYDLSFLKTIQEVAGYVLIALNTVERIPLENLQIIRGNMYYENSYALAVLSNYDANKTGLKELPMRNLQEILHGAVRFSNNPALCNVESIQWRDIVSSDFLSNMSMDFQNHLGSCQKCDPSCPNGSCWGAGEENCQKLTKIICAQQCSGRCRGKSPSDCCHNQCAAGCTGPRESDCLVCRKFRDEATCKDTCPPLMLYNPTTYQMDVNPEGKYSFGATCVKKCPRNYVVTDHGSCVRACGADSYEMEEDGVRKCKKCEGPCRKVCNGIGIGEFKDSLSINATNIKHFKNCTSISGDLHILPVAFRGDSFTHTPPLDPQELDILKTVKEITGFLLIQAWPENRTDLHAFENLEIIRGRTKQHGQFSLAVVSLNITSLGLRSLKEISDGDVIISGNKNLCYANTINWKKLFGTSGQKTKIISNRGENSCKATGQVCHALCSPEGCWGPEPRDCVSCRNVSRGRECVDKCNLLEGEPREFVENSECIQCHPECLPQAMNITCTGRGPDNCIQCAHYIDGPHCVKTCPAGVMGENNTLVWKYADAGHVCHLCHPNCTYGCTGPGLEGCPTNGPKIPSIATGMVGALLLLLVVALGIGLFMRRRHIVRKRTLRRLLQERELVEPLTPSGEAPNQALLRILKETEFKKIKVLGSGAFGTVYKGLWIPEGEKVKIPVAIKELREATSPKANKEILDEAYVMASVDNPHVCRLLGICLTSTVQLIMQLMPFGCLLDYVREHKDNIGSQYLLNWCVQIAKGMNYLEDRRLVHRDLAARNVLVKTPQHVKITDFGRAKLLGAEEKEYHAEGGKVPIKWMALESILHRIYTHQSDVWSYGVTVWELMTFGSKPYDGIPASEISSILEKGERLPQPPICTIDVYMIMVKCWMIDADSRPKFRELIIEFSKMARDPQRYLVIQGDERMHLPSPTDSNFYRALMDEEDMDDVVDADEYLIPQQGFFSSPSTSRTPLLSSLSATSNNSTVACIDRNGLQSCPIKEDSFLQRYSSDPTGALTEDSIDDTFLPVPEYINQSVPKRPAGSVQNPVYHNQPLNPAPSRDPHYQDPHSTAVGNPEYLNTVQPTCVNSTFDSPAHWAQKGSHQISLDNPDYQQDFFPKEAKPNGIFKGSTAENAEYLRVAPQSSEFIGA
- assay_overview: Inhibition of recombinant N-terminal GST-tagged human EGFR T790M/L858R double mutant using biotinylated TK substrate incubated for 50 mins by HTRF assay
measured_parameter: IC50 (µM)
Express it in µM; write the number only.

Solved entries (count: 3):
C=CC(=O)NCCn1c(-c2nc(-c3cnn(C4CCN(C)CC4)c3)cnc2N)nc2ccccc21: 2.2
CCn1c(-c2nc(-c3cnn(C4CCN(C)CC4)c3)cnc2N)nc2ccccc21: 0.05
C=CC(=O)NCCCn1c(-c2nc(-c3cnn(C4CCN(C)CC4)c3)cnc2N)nc2ccccc21: 0.2

Next item in the queue.
Ask | Given the molecule `CN1CCC(n2cc(-c3cnc(N)c(-c4nc5ccccc5[nH]4)n3)cn2)CC1` , write its reported IC50.
Reply | 0.29

---

- measured_target: Epidermal growth factor receptor (Homo sapiens, UniProt P00533)
- assay_overview: Inhibition of wild-type EGFR autophosphorylation in human LoVo cells incubated for 2 hrs followed by EGF-stiumlation for 10 mins by ELISA
measured_parameter: pEC50
pEC50 (log units): -log10 of the concentration in mol/L.

Solved entries (count: 3):
C=CC(=O)Nc1cccc(-n2c(-c3nc(-c4cnn(C)c4)cnc3N)nc3ccccc32)c1: 5.97
C=CC(=O)Nc1ccc(-n2c(-c3nc(-c4cnn(C5CCN(C)CC5)c4)cnc3N)nc3ccccc32)cc1: 5.47
C=CC(=O)Nc1cccc(-n2c(-c3nc(-c4cnn(C5CCN(C)CC5)c4)cnc3N)nc3cnccc32)c1: 5.36

Next item in the queue.
Ask | Given the compound `C=CC(=O)Nc1ccc(F)c(-n2c(-c3nc(-c4cnn(C5CCN(C)CC5)c4)cnc3N)nc3ccccc32)c1` , write its reported pEC50.
Reply | 5.36

---

- measured_target: Epidermal growth factor receptor (Homo sapiens, UniProt P00533, L858R/T790M)
- assay_overview: Inhibition of EGFR T790M/L858R double mutant autophosphorylation in human NCI-H1975 cells incubated for 2 hrs by ELISA
EC50 under 20 nM gets t, anything at or over 20 nM gets f.

Here are 5 compounds together with their reported answers.
C=CC(=O)N(C)c1cccc(-n2c(-c3nc(-c4cnn(C5CCN(C)CC5)c4)cnc3N)nc3ccccc32)c1: f
C=CC(=O)Nc1cccc(-n2c(-c3nc(-c4cnn(C)c4)cnc3N)nc3ccccc32)c1: t
C=CC(=O)Nc1cccc(-n2c(-c3nc(-c4cnn(C5CCN(C)CC5)c4)cnc3N)nc3ccncc32)c1: f
C=CC(=O)Nc1cccc(-n2c(-c3nc(-c4cnn(C5CCN(C(=O)CN(C)C)CC5)c4)cnc3N)nc3ccccc32)c1: t
C=CC(=O)Nc1cccc(-n2c(-c3nc(-c4cnn(C5CCN(C)CC5)c4)cnc3N)nc3cnccc32)c1: t

Ask | For `C=CC(=O)Nc1cccc(-n2c(-c3nc(-c4cnn(C5CCN(C(C)C)CC5)c4)cnc3N)nc3ccccc32)c1` , is the recorded EC50 below the cut-off of 20 nM?
Reply | t

Ask | For `C=CC(=O)Nc1cccc(-n2c(-c3nc(-c4cnn(CCN5CCOCC5)c4)cnc3N)nc3ccccc32)c1` , is the recorded EC50 below the cut-off of 20 nM?
Reply | f
